B1: WEE1 (parent)
chain: FISRTSIPNAASEEGDEDDWASNK

# Variants of: B1
# Procedure text: protein stability index of a GFP-peptide fusion (GPS, HEK-293T) (PSI 1-6); higher = more stable;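 also: lentivirally expressed fusions sorted by FACS into six bins by GFP to DsRed ratio, PSI derived from sequencing read proportions per bin multiplied by bin number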
# Test parameters: c terminus: a fixed tail appended
Decision: protein stability index >= 4 yields Criterion met, all other cases yield Criterion not met.

>>> group_label("K24A")
"Criterion met"
>>> group_label("D18I")
"Criterion not met"
>>> group_label("E17S")
"Criterion not met"
>>> group_label("R4C")
"Criterion met"
>>> group_label("S22W")
"Criterion not met"
>>> group_label("F1S")
"Criterion met"
>>> group_label("D18F")
"Criterion not met"
>>> group_label("I2T")
"Criterion met"
>>> group_label("S3I")
"Criterion not met"
>>> group_label("E17W")
"Criterion not met"
>>> group_label("W20K")
"Criterion not met"
>>> group_label("E13N")
"Criterion not met"
>>> group_label("S3P")
"Criterion not met"
>>> group_label("E17T")
"Criterion not met"
>>> group_label("I7H")
"Criterion not met"
>>> group_label("T5I")
"Criterion not met"
>>> group_label("S22E")
"Criterion met"
>>> group_label("A21D")
"Criterion met"
>>> group_label("D19G")
"Criterion not met"
>>> group_label("D18K")
"Criterion not met"
>>> group_label("S6I")
"Criterion not met"
>>> group_label("D16H")
"Criterion not met"
>>> group_label("R4H")
"Criterion met"
>>> group_label("K24P")
"Criterion met"
>>> group_label("D16W")
"Criterion not met"
>>> group_label("D18H")
"Criterion not met"
>>> group_label("W20F")
"Criterion met"
